Measured values drawn from ChEMBL document CHEMBL1201862 for this set.

- Test system: DMS-273
- Experiment: NCI tumour cell line growth inhibition, 48 h
Calls of active or inactive are those of the source. Cut-off read from the data, not from the text of the source: active = GI50 up to about 1.1 µM and inactive = higher.
Classes used: Y = active, N = inactive

>>> group("CCN(CC)c1ccc(C2N3CCCCC3[C@@H]3c4[nH]c5ccccc5c4CCN23)cc1 (stereo partly specified)")
"N"
>>> group("O=C1/C(=C/c2ccc3c(c2)OCO3)CCC1CN1CCOCC1 (stereo unspecified)")
"N"
>>> group("C/C=C(\\C)C(=O)N1c2ccccc2CC1c1c(C)[nH]c2ccccc12 (stereo unspecified)")
"N"
>>> group("COc1ccc2c3c1O[C@H]1C[C@@H](O)C=C[C@@]31CCN(C)C2")
"N"
>>> group("Cc1c(C(=O)c2ccccc2C(=O)O)c2ccccc2n1C")
"N"
>>> group("COC(=O)C(=O)C(C#N)c1cccc(Cl)c1 (stereo unspecified)")
"N"
>>> group("Cc1c(O)c(=O)ccn1CCN")
"N"
>>> group("O=S1(=O)CS(=O)(=O)OCCCCCO1")
"N"
>>> group("COC(=O)c1c(-c2ccccc2)sc(-c2cccc3ccccc23)c1C(=O)OC")
"N"
>>> group("CCOc1ccc(/C=C/C(=O)c2sc(NNC(C)=O)nc2C)cc1")
"N"
>>> group("Cc1cc2c(=O)c3ccc(Cl)cc3[nH]c2c(C(N)=O)c1C")
"N"
>>> group("COC(=O)CC(C(C(=O)OC)C(=O)OC)N1C(=O)OC(c2ccccc2)C1c1ccccc1 (stereo unspecified)")
"N"
>>> group("COc1cc(C2c3cc4c(cc3[C@@H](NCCN3CCCCC3)C3COC(=O)[C@H]23)OCO4)cc(OC)c1O (stereo partly specified)")
"Y"
>>> group("CC(=O)OC1C[C@H]2C(OC(=O)c3ccccc3)C3C4(OC(C)=O)COC4C[C@H](OC(C)=O)[C@@]3(C)C(OC(C)=O)[C@H](OC(C)=O)C(=C1C)C2(C)C (stereo partly specified)")
"N"
>>> group("CCC1NCC(=O)c2c1[nH]c1ccccc21 (stereo unspecified)")
"N"
>>> group("CN(C)c1nc(N(C)C)nc(N(C)CN(C)c2nc(N(C)C)nc(N(C)C)n2)n1")
"N"
>>> group("CC1=C(N(C)C)C(=O)c2nc3n(c2C1=O)CCC3OC(N)=O (stereo unspecified)")
"N"
>>> group("C[N+](C)(C)CC1CCCC1=O (stereo unspecified)")
"N"
>>> group("N/C(=C\\c1ccc(OCc2ccccc2)c(OCc2ccccc2)c1[N+](=O)[O-])C(=O)O")
"N"
>>> group("CC12OC(=O)C(C#N)C1(C)C1C(=O)CCCC12 (stereo unspecified)")
"N"
>>> group("NC(CCC(=O)NC(CSC(=O)N(O)c1ccccc1)C(=O)NCC(=O)O)C(=O)O (stereo unspecified)")
"N"

----------
- System: TK-10
- Experiment: NCI tumour cell line growth inhibition, 48 h
Active and inactive are the calls of the source. Cut-off read from the data, not from the text of the source: active = GI50 up to about 1.1 µM and inactive = higher.
Classes used: 1.0 for active, 0.0 for inactive

>>> group("O=[N+]([O-])c1cccc2nc3ccccc3c(NCCc3cccc[n+]3[O-])c12")
1.0
>>> group("O=C(c1ccsc1)c1nccc2c1cnc1ccccc12")
0.0
>>> group("Cc1ccc(C)n2c1nc1ccccc12")
0.0
>>> group("COc1cc2c(/C=C3/C(=O)Nc4ccc(O)cc43)c(Cl)[nH]c2cc1C")
1.0
>>> group("COC(=O)Nc1nc2cc(C(=O)c3ccc[nH]3)ccc2[nH]1")
0.0
>>> group("Cc1cc(S(=O)(=O)NC(=C(C#N)C#N)[n+]2ccc(N(C)C)cc2)c([S-])cc1Cl")
0.0
